Parameter ε (extinction coefficient): see the listing below.
PROTOCOL: UV-Vis absorption spectroscopy (absorption maximum, extinction coefficient)
Assay type: physicochemical
SETUP CONDITIONS: determined by UV-Vis spectroscopy; in M-1cm-1 (unit assumed)

MOLECULE	ε (extinction coefficient)
CC1=C(I)C(C)=[N+]2C1=C(COC(=O)Cc1ccccc1)c1c(C)c(I)c(C)n1[B-]2(C)C [Compound 6]	60,700
CC1=CC(C)=[N+]2C1=C(COC(=O)Cc1ccccc1)c1c(C)cc(C)n1[B-]2(C)C [Compound 2]	68,500
CC1=CC(C)=[N+]2C1=C(CCl)c1c(C)cc(C)n1[B-]2(C)C [Compound 1]	60,580
CC1=CC(C)=[N+]2C1=C(COC(=O)Cc1ccccc1)c1c(C)cc(C)n1[B-]2(c1ccccc1)c1ccccc1 [Compound 4]	58,300
CC[B-]1(CC)n2c(C)cc(C)c2C(COC(=O)Cc2ccccc2)=C2C(C)=CC(C)=[N+]21 [Compound 3]	55,300
